test system: IL-12 signaling (TYK2 and JAK2), STAT4 phosphorylation; assay: Human Whole Blood IL-12 Induced STAT4 Phosphorylation Assay; format: cell-based; conditions: IL-12 5 ng/mL, pSTAT4 in lymphocytes by flow cytometry
measure-name: IC50 (nM)

// below: answered compounds
>  <structure-smiles-string>
N#CC[C@H]1C[C@@](CC#N)(n2ccc(-c3nc(-c4cn[nH]c4)cc4ncccc34)n2)C1

>  <measure-name>
IC50

>  <unit-string>
nM

>  <reported-result>
76

$$$$
>  <structure-smiles-string>
Cn1cc(-c2cc3ncccc3c(-c3ccn([C@]4(CC#N)C[C@H](C#N)C4)n3)n2)cn1

>  <measure-name>
IC50

>  <unit-string>
nM

>  <reported-result>
40

$$$$
>  <structure-smiles-string>
N#CC[C@]1(n2ncc(-c3cc(-c4cn[nH]c4)cc4ncccc34)n2)C[C@H](C#N)C1

>  <measure-name>
IC50

>  <unit-string>
nM

>  <reported-result>
123

$$$$

(P) N#CC[C@]1(n2ccc(-c3nc(-c4cc(N)[nH]n4)cc4ncccc34)n2)C[C@H](C#N)C1
(Q) Cn1cc(-c2cc(-c3cnn([C@]4(CC#N)C[C@H](C#N)C4)c3)n3ccnc3c2)cn1
Data request: Please let me know which one, P or Q , has a lower measured IC50 value. Return value: the label identifying the chosen record.
Data returned: P

---

molecular target: TYK2 (Homo sapiens (Human), UniProt P29597); experiment: JAK Caliper Enzyme Assay at 1 mM ATP, TYK2; format: biochemical; conditions: JAK Caliper enzyme assay
Sequence (P29597 897-1176): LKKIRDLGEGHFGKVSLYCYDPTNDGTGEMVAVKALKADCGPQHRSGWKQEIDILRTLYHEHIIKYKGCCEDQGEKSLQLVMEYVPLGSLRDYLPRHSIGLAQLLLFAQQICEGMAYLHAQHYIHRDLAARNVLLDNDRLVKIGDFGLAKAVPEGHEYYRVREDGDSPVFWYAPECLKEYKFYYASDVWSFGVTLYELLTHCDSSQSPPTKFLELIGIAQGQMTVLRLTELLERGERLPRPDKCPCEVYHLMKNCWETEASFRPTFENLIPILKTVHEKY
pIC50: −log10 of the molar value.
measure-name: pIC50

Completed entries (count: 3):
>  <molecule>
CS(=O)(=O)Nc1cccc(-c2cc(-c3cnn(C4(CC#N)CC(C#N)C4)n3)c3cccnc3c2)n1 (centres unmarked) [Example 373]

>  <pIC50>
7.16

$$$$
>  <molecule>
CS(=O)(=O)N1CC(CC#N)(n2ncc(-c3cc(-c4cnc(N)nc4)cc4ncccc34)n2)C1 [Example 393]

>  <pIC50>
5.46

$$$$
>  <molecule>
CS(=O)(=O)N1CC(CC#N)(n2ncc(-c3cc(-c4ccc(=O)[nH]c4)cc4ncccc34)n2)C1 [Example 409]

>  <pIC50>
7.28

$$$$

(A) N#CC[C@]1(n2ncc(-c3cc(-c4cc(C(N)=O)c(F)cn4)cc4ncccc34)n2)C[C@@H](C#N)C1 [Example 386]
(B) Cn1cc(-c2cc(-c3cnn([C@]4(CC#N)C[C@H](C#N)C4)c3)n3ccnc3c2)cn1 [Example 458]
Data request: Which record would sort first by descending pIC50, A or B ? Respond with the label that goes with your answer.
Data returned: B

---

molecular target: UniProt:P29597; experiment: JAK Caliper Enzyme Assay at 1 mM ATP, TYK2; format: biochemical
pIC50: −log10 of the molar value.
measure-name: pIC50

Guide cases for pIC50, answers given:
>  <compound>
N#CCC1(n2ncc(-c3cc(-c4ccc(C(N)=O)cn4)cc4ncccc34)n2)CC(C#N)C1 (stereo not shown) [Example 351]

>  <study-system>
UniProt:P29597

>  <pIC50>
6.88

$$$$
>  <compound>
N#CCC1(n2ccc(-c3nc(-c4ccncc4)cc4ncccc34)n2)CN(CC(F)(F)F)C1 [Example 172]

>  <study-system>
UniProt:P29597

>  <pIC50>
7.57

$$$$

(A) N#CCC1(n2ccc(-c3nc(-c4ccc(O)nc4)cc4ncccc34)n2)CN(C2CC(F)(F)C2)C1 [Example 185]
(B) Cc1cc(-c2cc3ncccc3c(-c3ccn([C@]4(CC#N)C[C@](C)(C#N)C4)n3)n2)n[nH]1 [Example 45]
(C) Cn1nc(-c2cc3ncccc3c(-c3ccn([C@]4(CC#N)C[C@H](C#N)C4)n3)n2)cc1CO [Example 63]
Data request: Put the compounds in ascending order of pIC50. Give me the labels in the order the question wants.
Data returned: A, B, C
(A: 7.06, B: 7.48, C: 7.77)

(I) CNS(=O)(=O)N1CC(CC#N)(n2ccc(-c3nc(-c4cnn(C)c4)cc4ncccc34)n2)C1 [Example 109]
(II) N#CCC1(n2ncc(-c3cc(-c4cc[nH]n4)cc4ncccc34)n2)CN(CC(F)(F)F)C1 [Example 296]
Data request: Which is greater in pIC50, the first item I or the second item II ? Use the label to indicate which entry you chose.
Data returned: II

---

biological target: JAK2 (Homo sapiens (Human), UniProt O60674); test: JAK Caliper Enzyme Assay at 1 mM ATP, JAK2; assay type: biochemical
Sequence (O60674 849-1124): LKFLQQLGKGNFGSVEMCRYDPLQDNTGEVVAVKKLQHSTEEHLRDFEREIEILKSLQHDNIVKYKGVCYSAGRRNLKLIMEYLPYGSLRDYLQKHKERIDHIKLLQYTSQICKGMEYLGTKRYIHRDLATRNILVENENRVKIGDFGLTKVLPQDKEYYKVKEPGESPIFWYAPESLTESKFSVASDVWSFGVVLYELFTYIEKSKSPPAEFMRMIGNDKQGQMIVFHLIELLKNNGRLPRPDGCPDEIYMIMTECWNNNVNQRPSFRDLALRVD
pIC50: −log10 of the molar value.
measure-name: pIC50

Worked cases, answers included:
>  <molecule>
Cc1n[nH]cc1-c1cc2ncccc2c(-c2ccn([C@]3(CC#N)C[C@H](C#N)C3)n2)n1 [Example 90]

>  <reported-result>
6.90

$$$$
>  <molecule>
CS(=O)(=O)N1CC(CC#N)(n2ccc(-c3nc(-c4cnn5cccnc45)cc4ncccc34)n2)C1 [Example 168]

>  <reported-result>
5.18

$$$$
>  <molecule>
CS(=O)(=O)N1CC(CC#N)(n2ccc(-c3nc(-c4c[nH]c5nccc-5c4)cc4ncccc34)n2)C1 [Example 157]

>  <reported-result>
6.07

$$$$
>  <molecule>
N#CCC1(n2ccc(-c3nc(-c4ccnc(N)c4)cc4ncccc34)n2)CC(C#N)C1 (stereo not drawn) [Example 199]

>  <reported-result>
6.70

$$$$
>  <molecule>
CS(=O)(=O)N1CC(CC#N)(n2ccc(-c3nc(-c4ccn(C5COC5)n4)cc4ncccc34)n2)C1 [Example 56]

>  <reported-result>
5.83

$$$$

(A) CN1CCC(n2cc(-c3cc4ncccc4c(-c4ccn(C5(CC#N)CN(CC(F)(F)F)C5)n4)n3)cn2)CC1 [Example 117]
(B) N#CC[C@]1(n2ccc(-c3nc(-c4cn[nH]c4)cc4ncccc34)n2)C[C@@H](c2ccn[nH]2)C1 [Example 85]
(C) CO[C@H]1C[C@](CC#N)(n2ccc(-c3nc(-c4cn[nH]c4)cc4ncccc34)n2)C1 [Example 81]
Data request: Order these by pIC50, descending, and give the full ranking. In plain terms: list the labels in the order you were asked to.
Data returned: A, B, C
(A: 7.19, B: 6.99, C: 5.66)

(P) CS(=O)(=O)N1CC(CC#N)(n2ccc(-c3nc(-c4cnn([C@H]5CCOC5)c4)cc4ncccc34)n2)C1 [Example 123]
(Q) Cn1nc(-c2cc(-c3cnn([C@]4(CC#N)C[C@@H](C#N)C4)n3)c3cccnc3c2)cc1CO [Example 309]
(R) Cc1ccn(-c2cc3ncccc3c(-c3ccn(C4(CC#N)CN(CC(F)(F)F)C4)n3)n2)n1 [Example 143]
Data request: Parameters: sort_field (pIC50), sort_dir (desc). Provide the ranking by listing each label in its place in the requested order.
Data returned: P, Q, R

---

biological target: JAK2 (Homo sapiens (Human), UniProt O60674); assay: JAK Caliper Enzyme Assay at 1 mM ATP, JAK2; assay type: biochemical
pIC50: −log10 of the molar value.
measure-name: pIC50

>  <compound>
CS(=O)(=O)N1CC(CC#N)(n2ccc(-c3nc(-c4cnc5[nH]c(=O)[nH]c5c4)cc4ncccc34)n2)C1

>  <pIC50>
6.62

$$$$

(A) Cn1ncc(-c2cc3ncccc3c(-c3ccn(C4(CC#N)CC(C#N)C4)n3)n2)c1N (centres unmarked)
(B) CO[C@H]1C[C@](CC#N)(n2ccc(-c3nc(-c4c[nH]nc4N)cc4ncccc34)n2)C1 [Example 96]
(C) CC(=O)NC1CC(CC#N)(n2ccc(-c3nc(-c4cc[nH]n4)cc4ncccc34)n2)C1 (centres unmarked)
(D) N#CCC1(n2ccc(-c3nc(-c4cc(CO)[nH]n4)cc4ncccc34)n2)CC(C#N)C1 (centres unmarked)
(E) Cc1ccc(-c2cc3ncccc3c(-c3ccn(C4(CC#N)CN(S(C)(=O)=O)C4)n3)n2)c(N)n1
Data request: Please list these in order of increasing pIC50. Thank you! State the ranking by listing the labels in the requested order.
Data returned: C, E, B, A, D
(C: 5.46, E: 6.25, B: 6.61, A: 6.90, D: 7.14)

---

target: JAK2 (Homo sapiens (Human)); assay: JAK Caliper Enzyme Assay at 1 mM ATP, JAK2; type: biochemical
measure-name: IC50 (nM)

See these solved cases before continuing.
>  <compound>
Cc1cc(-c2nc(-c3cc(N)n(C)n3)cc3ncccc23)nn1[C@]1(CC#N)C[C@@H](C#N)C1 [Example 270]

>  <unit-string>
nM

>  <IC50>
574

$$$$
>  <compound>
N#CCC1(n2ncc(-c3cc(-c4cc[nH]n4)cc4ncccc34)n2)CN(CC(F)(F)F)C1 [Example 296]

>  <unit-string>
nM

>  <IC50>
598

$$$$
>  <compound>
N#CC[C@]1(n2ccc(-c3nc(-c4cccc(O)n4)cc4ncccc34)n2)C[C@H](C#N)C1 [Example 182]

>  <unit-string>
nM

>  <IC50>
224

$$$$
>  <compound>
CCn1cc(-c2cc3ncccc3c(-c3ccn(C4(CC#N)CN(S(C)(=O)=O)C4)n3)n2)ccc1=O [Example 251]

>  <unit-string>
nM

>  <IC50>
229

$$$$
>  <compound>
N#CC[C@]1(n2ccc(-c3nc(-c4cc(N)[nH]n4)cc4ncccc34)n2)C[C@H](C#N)C1 [Example 41]

>  <unit-string>
nM

>  <IC50>
21

$$$$
>  <compound>
N#CC[C@]1(n2ncc(-c3cc(-c4c[nH]nc4CO)cc4ncccc34)n2)C[C@H](C#N)C1 [Example 317]

>  <unit-string>
nM

>  <IC50>
838

$$$$
>  <compound>
Cc1cn([C@]2(CC#N)C[C@@H](C#N)C2)nc1-c1nc(-c2cn[nH]c2N)cc2ncccc12 [Example 276]

>  <unit-string>
nM

>  <IC50>
947

$$$$
>  <compound>
Cc1cc(-c2cc3ncccc3c(-c3ccn(C4(CC#N)CN(S(C)(=O)=O)C4)n3)n2)cnc1N [Example 219]

>  <unit-string>
nM

>  <IC50>
1750

$$$$

(P) CS(=O)(=O)N1CC(CC#N)(n2ccc(-c3nc(-c4ccc(O)cc4)cc4ncccc34)n2)C1 [Example 254]
(Q) CNC(=O)C1CC(CC#N)(n2ccc(-c3nc(-c4cc[nH]n4)cc4ncccc34)n2)C1 (stereo not drawn) [Example 26]
Data request: Hi there, can you help? I need to know whether P or Q has lower measured IC50. // respond with label for picked entry
Data returned: P

(a) CO[C@H]1C[C@@](CC#N)(n2ccc(-c3nc(-c4cnn(C)c4)cc4ncccc34)n2)C1 [Example 110]
(b) N#CC[C@]1(n2ncc(-c3cc(-c4cc[nH]n4)cc4ncccc34)n2)C[C@H](C#N)C1 [Example 302]
(c) N#CCC1(n2ccc(-c3nc(-c4ccc5nncn5c4)cc4ncccc34)n2)CN(CC(F)(F)F)C1 [Example 167]
(d) CN(C)CCn1cc(-c2cc3ncccc3c(-c3ccn([C@]4(CC#N)C[C@H](C#N)C4)n3)n2)cn1 [Example 114]
Data request: Arrange the 4 entries by IC50 so the values rise. Would you mind listing the labels in the order requested?
Data returned: d, b, a, c
(d: 41 nM, b: 173 nM, a: 558 nM, c: 1290 nM)

(1) CNc1cc(-c2cc3ncccc3c(-c3ccn([C@]4(CC#N)C[C@H](C#N)C4)n3)n2)nn1C [Example 69]
(2) CS(=O)(=O)N1CC(CC#N)(n2ccc(-c3nc(-c4ccc(=O)[nH]c4)cc4ncccc34)n2)C1 [Example 245]
Data request: Determine, for 1 and 2 , which has the greater value of IC50. Select an item and report its label.
Data returned: 1

Hey, just so you know, these numbers are from patent US11254668B2.
